Reported pKd is given for each of the following molecules.
# system-under-test: human TYK2 (JH2domain-pseudokinase) (Homo sapiens (Human))
# Sequence (P29597 556-888): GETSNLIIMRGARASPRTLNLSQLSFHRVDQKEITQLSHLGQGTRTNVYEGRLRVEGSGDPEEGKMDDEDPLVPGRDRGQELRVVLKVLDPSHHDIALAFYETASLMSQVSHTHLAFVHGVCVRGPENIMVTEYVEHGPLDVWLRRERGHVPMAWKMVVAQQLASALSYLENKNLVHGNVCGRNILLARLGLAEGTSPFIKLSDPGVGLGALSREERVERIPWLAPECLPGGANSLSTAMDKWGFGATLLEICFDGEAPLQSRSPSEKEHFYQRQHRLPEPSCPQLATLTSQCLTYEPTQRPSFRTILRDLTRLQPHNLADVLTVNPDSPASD
# test-description: TYK2 JH2 Domain Binding Assay (KINOMEscan, DiscoveRx)
# experimental-parameters: 11-point dilution, duplicate
pKd: −log10 of the molar value.
observed-property: pKd

> print(dat)
                                    molecule  observed.property         result
 1  Cc1nc2c(Nc3ccc([C@@H]4CCC(F)(F)CO4)cc3S(C)(=O)=O)cc(NC(=O)C3CC3)nc2[nH]1                pKd  9.30 to 10.00
 2  COCCNc1ccc(Nc2cc(Nc3ccccc3N(C)S(C)(=O)=O)c3nc(C(F)F)[nH]c3n2)nc1C#N                pKd  9.30 to 10.00
 3  COc1cc(C(=O)N2CCCC2)ccc1Nc1cc(NC(=O)C2CC2)nc2[nH]c(C)nc12                pKd   8.00 to 9.00
 4  CN(c1cc(-c2cnn(C)c2)ccc1Nc1cc(NC(=O)[C@H]2CC2(F)F)nc2[nH]c(C(F)F)nc12)S(C)(=O)=O                pKd   8.00 to 9.00
 5  CS(=O)(=O)c1ccccc1Nc1cc(Nc2ccc(OC3CCOCC3)c(C#N)n2)nc2[nH]c(C(F)F)nc12                pKd        > 10.00
 6  CCOc1ccc(Nc2cc(Nc3ccccc3S(C)(=O)=O)c3nc(C(F)F)[nH]c3n2)nc1C#N                pKd  9.30 to 10.00
 7  Cc1nc2c(Nc3ccc(-c4nn(C)cc4C)cc3S(C)(=O)=O)cc(NC(=O)C3CC3)nc2[nH]1                pKd        > 10.00
 8  Cc1nc2c(Nc3ccc([C@H]4CCCO4)cc3S(C)(=O)=O)cc(NC(=O)C3CC3)nc2[nH]1                pKd        > 10.00
 9  Cn1ccc(-c2ccc(Nc3cc(NC(=O)[C@@H]4CC4(F)F)nc4[nH]c(C(F)F)nc34)c(S(C)(=O)=O)c2)n1                pKd   9.00 to 9.30
10  CS(=O)(=O)c1cc(C2CCOCC2)ccc1Nc1cc(NC(=O)C2CC2(F)F)nc2[nH]c(C(F)F)nc12 (centres unmarked)                pKd   8.00 to 9.00
11  CS(=O)(=O)c1cc(C2CC2)ccc1Nc1cc(Nc2cc3n(n2)CCOC3)nc2[nH]c(C(F)F)nc12                pKd  9.30 to 10.00
